Hey, just so you know, these numbers are from the nanobody polyreactivity screen of Harvey et al. (2022).

- experimental-details: yeast display, Sf9 membrane polyspecificity reagent, FACS + sequencing; frameworks hold sequencing errors
property-name: polyreactivity (PSR sort gate)

Solved entries:
QVQLVDSGGGIVQAGGSLRLSCPASGSTFGSYALGWSRQKPGKEREWVAAITSAGSTNYADSVKGRFTISRDNAKNTVYLQMNSLKPEDTAVYYCNDVRYYSYQYDPEVTHRYGYWGQGSQVTVSS | high polyreactivity
QVQLVESGGGLVQAGGSLRLSCAASGLTFASNAMGWYRQAPGKERELVAAISWSDGSTYYADSVKGRFTISRDNAKNTVYLQMNSLKPEDTAVYYCAADPPGFRTYRVGYWGQGTQVTVSW | low polyreactivity
QVQLVESGGGLVQAGGSLRLSCAASGRTLSRYTMGWYRQAPGKERELVAAISTSGSTYYADSVKGRFTISRDNAKNTVYLQMNSLKPEDTAVYYCNAVRRYLQYATGYDYWGQGTQVTVSS | high polyreactivity
QVQLVESGGGLVQAGGSLRLSCAASGIILHYYAMGWYRQAPGKERELVAAISARGGRTYYADSVKGRFTISRDNANNTVYLQMNSLKPEDTAVYYCAAVTVASPTRMDYWGQGTQVTVSS | high polyreactivity
QVQLVESGGGLVQAGGSLRLSCAASGRISAFNAMGWYRQAPGKERELVAAINVSGGNTYYADSVKGRFTISRDNAKNTVYLQMNSLKPEDTAVYYCAAERRRWGLDYYYWGQGTQVTVSS | high polyreactivity
QVQLVESGGGLVQAGGSLRLICAASGSILGTYAMGWYRQAPGNDRELVAAISSSGRTSYADSVKGRFTISRDNAKNTVYLQMNSLKPEETAVYYCNASNYIFLINDPDAAPWLYDYWGQGSQVTVSS | low polyreactivity
QVQLVESGGGLVQAGGSLRLSCAASGSLIGQNAMGWYRQAPGKERELVATISRSGARTYYADSVKGRFTISRDIAKNTVYLQMNSLKPEDTAVYYCAARLLSVGVPMYSWGQGTQVTVSS | high polyreactivity
QVQLVESGGGLVQAGGSLRLSCAASGLIFYLYAMGWYRQQPGKERELVARMSRGGSTNYADSVKGRFTISRDNAKNTVYLQLNSLKPEDTAVDYCAADWFVSLGEMYYWGQGTQGTVSS | low polyreactivity

Turning to the following sequence.
Incoming: Would you kindly share the measured polyreactivity (PSR sort gate) for QVQLVESGRGLVQAGASLRLSCAASGSTFAQYARGSYRQAPWKESELVAAITRTGITNYADSVKGRFTISRDNAKNNVYLQMNSLKPEDTAVYYCAARRWRNGYGTGYGYWGLGTQVTVSS ?
Outgoing: high polyreactivity
